Each recorded value in this set is attributed to patent US20170355774A1.

- EXPERIMENTAL TARGET: T1, mfGITR.mmh (Macaca fasicularis)
- T1 construct: soluble monomeric construct; also called Macaca fasicularis (mf) GITR.mmh; cynomolgus GITR protein
- T1 chain: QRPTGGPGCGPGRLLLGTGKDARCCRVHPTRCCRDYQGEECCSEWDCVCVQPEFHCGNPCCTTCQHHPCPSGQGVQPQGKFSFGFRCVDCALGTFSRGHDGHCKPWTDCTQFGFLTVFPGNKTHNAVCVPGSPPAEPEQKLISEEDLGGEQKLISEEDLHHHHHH
- PROTOCOL DETAILS: SPR 37C, mAb capture
Catalogue of t½ values
Write the answer as a number in min, unit excluded.

Worked cases, answers included:
[
  {
    "BINDER": "H1H14503P (antibody, human IgG1, V domains shown, human IgG1 (H1H)) VH: QVQLVESGGGVVQPGRSLRLSCEASGFTFSNYGFHWVRQAPGKGLDWVAVIWYAGSNKFYVDSVQGRFTISRDNSKQILFLQMNSLRAEDSAVYYCVRGGILGIDYYSGMDVWGQGTTVTVSS VL: AIQMTQSPSSLSASVGDRVTITCRASQDIRNDLGWYQQRPGKAPKFLIYSTSSLQSGVPSRFSGSGSGTDFILTISSLQPEDFATYYCLQSHNYPWTFGHGTKVEIK",
    "t½, min": 2.1
  },
  {
    "BINDER": "H1H14524P (antibody, human IgG1, V domains shown, human IgG1 (H1H)) VH: QVQLVESGGGVAQPGRSLSLSCAASGFTFSDYGMHWVRQAPGKGLEWVAVIWYAGSNKYYADSVKDRFTISRDNSKNTLYLQMRSLRVEDTAVYYCARGGELRLDYYSGLDVWGQGTTVTVSS VL: DIQMTQSPSSLSASVGDRVTVTCRASQGIRSDLGWYQQKPGKAPKRLIYAASSFQSGVPSRFSGSGSGTEFTLTISSLHPEDFATYYCLQSNNYPWTFGQGTKVEIK",
    "t½, min": 0.6
  }
]

**Query** May I ask what t½ has been recorded for H1H14495P (antibody, human IgG1, V domains shown, human IgG1 (H1H)) VH: QVQLVESGGGAVQPGTSLRLSCAASGFTFSSFGMHWVRQAPGKGLEWVSVIWYEGSNKYYADSVKGRFTISRDNSRNTLSLQMDSLRVEDTAVYYCARGGELGVNYYYDMDVWGQGTTVTVSS VL: DIQMTQSPSSLSASVGDRVTITCRASQDIKNDLGWFQQKAGKAPKRLFYATSSLQSGVPSRFSGSGSGTEFTLTISSLQPEDFATYYCLQVHSYPRTFGQGTKVEIK ?
**Result** 1.6
